Cited source: ChEMBL document CHEMBL1126442

Target: Muscarinic acetylcholine receptor M2 (Rattus norvegicus, UniProt P10980)
Sequence (P10980 whole entry): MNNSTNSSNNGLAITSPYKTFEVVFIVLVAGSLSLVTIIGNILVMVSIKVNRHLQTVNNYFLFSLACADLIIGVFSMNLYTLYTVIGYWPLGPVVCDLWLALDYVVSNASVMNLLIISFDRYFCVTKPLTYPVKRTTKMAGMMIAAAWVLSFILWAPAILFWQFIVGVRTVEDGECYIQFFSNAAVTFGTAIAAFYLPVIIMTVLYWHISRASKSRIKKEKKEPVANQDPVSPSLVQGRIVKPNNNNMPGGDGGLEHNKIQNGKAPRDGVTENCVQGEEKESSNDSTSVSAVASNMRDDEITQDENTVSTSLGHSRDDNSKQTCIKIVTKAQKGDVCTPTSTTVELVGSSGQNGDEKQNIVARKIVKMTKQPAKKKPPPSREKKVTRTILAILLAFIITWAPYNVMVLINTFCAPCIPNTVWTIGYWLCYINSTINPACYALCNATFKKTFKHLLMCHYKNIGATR
Assay: Dissociation constant for the blocking of cardiac muscarinic M2 receptor was reported.
Parameters: species or system Heart
endpoint-label: pKd
Give bare numbers, as −log10 of the molar value.

Task: Let me know recorded pKd for C[C@@H]1OC(=O)[C@H]2C[C@H]3CCCC[C@@H]3[C@@H](/C=C/[C@H]3CCC[C@H](C)N3C)[C@@H]12 , thanks.
Result: 8.52

====

species: Rattus norvegicus; experiment: Ability to reverse oxotremorine-M mediated inhibition of evoked acetylcholine release from hippocampal tissue
endpoint-label: pKd
Answers are plain numbers, as −log10 of the molar value.

Task: Let me know recorded pKd for C[C@@H]1OC(=O)[C@H]2C[C@H]3CCCC[C@@H]3[C@@H](/C=C/[C@H]3CCC[C@H](C)N3C)[C@@H]12 , thanks.
Result: 8.07

====

biological target: Muscarinic acetylcholine receptor M2 (Homo sapiens)
Sequence (P08172 whole entry): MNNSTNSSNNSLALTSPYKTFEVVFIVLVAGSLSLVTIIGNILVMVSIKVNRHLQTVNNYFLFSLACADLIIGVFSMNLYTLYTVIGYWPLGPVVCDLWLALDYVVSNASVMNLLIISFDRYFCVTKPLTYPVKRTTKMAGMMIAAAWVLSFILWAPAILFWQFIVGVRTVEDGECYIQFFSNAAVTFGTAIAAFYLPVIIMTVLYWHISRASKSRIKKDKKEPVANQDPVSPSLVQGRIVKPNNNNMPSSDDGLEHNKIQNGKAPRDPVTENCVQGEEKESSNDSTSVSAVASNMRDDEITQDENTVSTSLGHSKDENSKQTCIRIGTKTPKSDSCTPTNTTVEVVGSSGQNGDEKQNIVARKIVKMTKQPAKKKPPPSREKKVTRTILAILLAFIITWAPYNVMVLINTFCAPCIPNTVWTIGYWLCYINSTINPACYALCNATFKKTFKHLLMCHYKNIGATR
endpoint-label: Kd (µM)
Give bare numbers, in µM.

Task: Let me know recorded Kd for C[C@@H]1OC(=O)C[C@H]1C/C=C/[C@H]1CCCCN1C , thanks.
Result: 4.4

====

target: Muscarinic acetylcholine receptor M2 (Rattus norvegicus, UniProt P10980); experiment: Dissociation constant for the blocking of brainstem muscarinic M2 receptor was reported.; assay type: tissue-based
Assignment: determine reported pKd for the given molecules.
Numbers only, as −log10 of the molar value.

Task: Let me know recorded pKd for C[C@@H]1OC(=O)[C@H]2C[C@H]3CCCC[C@@H]3[C@@H](/C=C/[C@H]3CCC[C@H](C)N3C)[C@@H]12 [HIMBACINE] , thanks.
Result: 8.34

Let's switch to this molecule now.
Task: Let me know recorded pKd for C[C@@H]1OC(=O)C[C@H]1C/C=C/[C@H]1CCCCN1C , thanks.
Result: 5.92

====

Protein target, amino acids: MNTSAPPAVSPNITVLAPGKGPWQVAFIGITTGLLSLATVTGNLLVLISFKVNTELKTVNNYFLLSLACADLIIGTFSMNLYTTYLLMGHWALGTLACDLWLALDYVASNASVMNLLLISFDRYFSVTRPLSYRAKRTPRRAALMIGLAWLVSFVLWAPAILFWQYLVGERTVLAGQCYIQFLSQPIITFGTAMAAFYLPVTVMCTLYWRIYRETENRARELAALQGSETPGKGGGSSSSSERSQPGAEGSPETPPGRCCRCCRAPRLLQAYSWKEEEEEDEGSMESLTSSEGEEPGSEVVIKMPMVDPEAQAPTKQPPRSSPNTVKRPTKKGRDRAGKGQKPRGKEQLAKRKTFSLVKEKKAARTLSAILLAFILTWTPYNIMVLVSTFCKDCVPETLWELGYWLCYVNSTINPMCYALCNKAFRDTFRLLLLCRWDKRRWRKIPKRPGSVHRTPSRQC
endpoint-label: pKd
One number for each entry, as −log10 of the molar value.

Task: Let me know recorded pKd for C[C@@H]1OC(=O)C[C@H]1C/C=C/[C@H]1CCCCN1C , thanks.
Result: 5.01

====

Molecular target: Muscarinic acetylcholine receptor M2 (Rattus norvegicus, UniProt P10980)
Sequence (P10980 whole entry): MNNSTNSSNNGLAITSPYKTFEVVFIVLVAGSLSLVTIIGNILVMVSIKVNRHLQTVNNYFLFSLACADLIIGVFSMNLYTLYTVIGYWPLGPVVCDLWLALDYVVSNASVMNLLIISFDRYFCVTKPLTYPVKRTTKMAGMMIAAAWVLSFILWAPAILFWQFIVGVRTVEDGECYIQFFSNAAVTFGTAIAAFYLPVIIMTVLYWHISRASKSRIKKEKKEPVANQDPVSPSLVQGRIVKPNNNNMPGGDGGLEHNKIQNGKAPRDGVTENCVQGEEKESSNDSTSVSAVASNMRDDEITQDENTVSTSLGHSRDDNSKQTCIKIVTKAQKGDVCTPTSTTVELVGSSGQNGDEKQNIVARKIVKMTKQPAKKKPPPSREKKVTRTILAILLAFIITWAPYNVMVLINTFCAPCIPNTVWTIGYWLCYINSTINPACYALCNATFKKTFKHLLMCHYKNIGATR
Test: Dissociation constant for the blocking of heart muscarinic M2 receptor was reported.
endpoint-label: pKd
One number for each entry, as −log10 of the molar value.

Task: Let me know recorded pKd for C[C@@H]1OC(=O)[C@H]2C[C@H]3CCCC[C@@H]3[C@@H](/C=C/[C@H]3CCC[C@H](C)N3C)[C@@H]12 , thanks.
Result: 8.16
